Reference source for all entries: patent US20060229240A1

- study_target: T1, P1R-DelNt (truncated human P1R deleted for residues 24-181) (human, UniProt Q03431 182-593)
- T1 sequence (looked up): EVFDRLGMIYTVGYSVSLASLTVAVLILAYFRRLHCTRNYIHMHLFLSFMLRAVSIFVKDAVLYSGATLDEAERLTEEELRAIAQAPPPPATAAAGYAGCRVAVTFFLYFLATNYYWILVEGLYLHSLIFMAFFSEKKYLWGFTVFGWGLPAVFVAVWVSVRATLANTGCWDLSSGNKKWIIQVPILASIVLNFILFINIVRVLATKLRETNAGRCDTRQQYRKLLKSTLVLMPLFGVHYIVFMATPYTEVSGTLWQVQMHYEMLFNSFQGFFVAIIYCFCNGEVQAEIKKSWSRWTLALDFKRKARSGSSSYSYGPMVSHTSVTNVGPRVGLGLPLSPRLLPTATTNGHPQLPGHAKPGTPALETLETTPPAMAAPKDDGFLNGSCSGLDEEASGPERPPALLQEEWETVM
- assay_comment: cell-based or functional assay
No end group written: not given here.
Field 'label' (enum: MET / NOT MET). Set to MET when cAMP EC50 is strictly under 0.08 µM; else NOT MET.

Task item: Is cAMP EC50 strictly under 0.08 µM for the entry AVAEIQLMHQR-NH2 [PTH(1-11) (AlaValAlaGluIleGlnLeuMetHisGlnArg-amide)] ?
Reply: NOT MET

Task item: Problem: For the binder AVAEIALMHQR-NH2 [[Ala^6]PTH(1-11)] , is cAMP EC50 under 0.08 µM?
Reply: NOT MET
